Recorded values, source patent US20210388087A1.

# measurement_target: T1, Human CD3eg linker (human)
# T1 construct: Single chain: epsilon and gamma subunits of human CD3 joined by a 29-mer linker, Flag-tag at the C-terminus; also called recombinant human CD3
# T1 chain: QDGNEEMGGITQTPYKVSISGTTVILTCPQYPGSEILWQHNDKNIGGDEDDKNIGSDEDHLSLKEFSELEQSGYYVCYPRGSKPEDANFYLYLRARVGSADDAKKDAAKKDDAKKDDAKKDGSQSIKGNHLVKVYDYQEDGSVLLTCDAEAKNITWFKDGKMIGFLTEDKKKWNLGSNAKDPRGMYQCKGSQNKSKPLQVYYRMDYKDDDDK
# test_name: Biacore SPR, vs template H183/L072
value_type: fold change of affinity (fold)
Note: unit fold is implicit; provide only the numeric part.

Please review the entries below; each comes with its answer.
H183/L072 VH N31I (antibody, name in Kabat numbering, V domains shown) VH: QVQLVESGGGLVQPGRSLRLSCAASGFTFSIAWMHWVRQAPGKGLEWVAQIKDKGNAYAAYYAPSVKGRFTISRDDSKNSIYLQMNSLKTEDTAVYYCHYVHYASASTVLPAFGVDAWGQGTTVTVSS VL: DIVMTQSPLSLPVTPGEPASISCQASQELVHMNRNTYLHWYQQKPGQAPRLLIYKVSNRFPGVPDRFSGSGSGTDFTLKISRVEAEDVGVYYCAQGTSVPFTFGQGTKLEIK	0.5
H183/L072 VH M34W (antibody, name in Kabat numbering, V domains shown) VH: QVQLVESGGGLVQPGRSLRLSCAASGFTFSNAWWHWVRQAPGKGLEWVAQIKDKGNAYAAYYAPSVKGRFTISRDDSKNSIYLQMNSLKTEDTAVYYCHYVHYASASTVLPAFGVDAWGQGTTVTVSS VL: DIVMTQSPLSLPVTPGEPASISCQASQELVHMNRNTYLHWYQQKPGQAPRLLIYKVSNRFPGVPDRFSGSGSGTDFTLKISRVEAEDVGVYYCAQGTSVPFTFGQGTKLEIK	0
H183/L072 VH Y59L (antibody, name in Kabat numbering, V domains shown) VH: QVQLVESGGGLVQPGRSLRLSCAASGFTFSNAWMHWVRQAPGKGLEWVAQIKDKGNAYAAYLAPSVKGRFTISRDDSKNSIYLQMNSLKTEDTAVYYCHYVHYASASTVLPAFGVDAWGQGTTVTVSS VL: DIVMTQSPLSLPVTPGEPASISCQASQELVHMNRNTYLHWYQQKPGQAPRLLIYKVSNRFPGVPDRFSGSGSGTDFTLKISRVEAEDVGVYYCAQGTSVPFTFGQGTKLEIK	1
H183/L072 VH D52aQ (antibody, name in Kabat numbering, V domains shown) VH: QVQLVESGGGLVQPGRSLRLSCAASGFTFSNAWMHWVRQAPGKGLEWVAQIKQKGNAYAAYYAPSVKGRFTISRDDSKNSIYLQMNSLKTEDTAVYYCHYVHYASASTVLPAFGVDAWGQGTTVTVSS VL: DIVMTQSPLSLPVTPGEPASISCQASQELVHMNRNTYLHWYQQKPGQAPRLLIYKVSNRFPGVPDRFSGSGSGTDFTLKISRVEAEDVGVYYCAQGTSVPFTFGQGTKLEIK	0

Now for another entry.
Input line: What measured fold change of affinity goes with H183/L072 VH T100bM (antibody, name in Kabat numbering, V domains shown) VH: QVQLVESGGGLVQPGRSLRLSCAASGFTFSNAWMHWVRQAPGKGLEWVAQIKDKGNAYAAYYAPSVKGRFTISRDDSKNSIYLQMNSLKTEDTAVYYCHYVHYASASMVLPAFGVDAWGQGTTVTVSS VL: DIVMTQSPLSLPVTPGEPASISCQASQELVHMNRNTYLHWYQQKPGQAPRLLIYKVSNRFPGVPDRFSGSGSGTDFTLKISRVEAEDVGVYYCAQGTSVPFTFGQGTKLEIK ?
Output line: 1
